tested on: Wolbachia pipientis; assay: Anti-Wolbachia Cell-Based Screen; assay type: functional; design: scale not given: in the data most compounds retested in dose-response had high values; settings: 5 µM
The campaign covered roughly 48,000 compounds. About 13,000 (27%) showed an effect of 50% or more. Some of the results follow.
Kindly supply the reported Percent Effect values for the records listed here.
Give bare numbers, in %.

Observe how each entry below is paired with its result.
>>> value_measured("Cc1noc(Cl)c1CCC(=O)N1CCC(Nc2cccnn2)CC1")
97.17
>>> value_measured("Cc1nc(NC2CCN(S(=O)(=O)c3ccccc3)CC2)[nH]c(=O)c1C")
93.81
>>> value_measured("Cc1nn(CC(=O)N2CCC(Nc3cccnn3)CC2)c(C)c1Cl")
-11.96
>>> value_measured("O=C(c1[nH]nc(C2CC2)c1Cl)N1CCN(S(=O)(=O)c2ccccc2)CC1")
-6.506
>>> value_measured("Cc1noc(Cl)c1CCC(=O)N1CCC(CC(N)=O)CC1")
-2.795

// batch mode: one Percent Effect value per listed entry
1. Cc1ccc(CCC(=O)N2CCC(Nc3cccnn3)CC2)cc1
2. Cc1cnn(CCC(=O)N2CCC(Nc3cccnn3)CC2)c1
3. Cc1ccc(NC2CCN(C(=O)CCc3ccco3)CC2)nn1
4. COc1ccc(OC)c(CNC2CCCN(c3cccnn3)C2)c1 (stereo unspecified)
5. Cc1cc(=O)[nH]c(NC2CCN(S(=O)(=O)c3ccccc3)CC2)n1
6. O=C(CCc1ccco1)N1CCC(Nc2cccnn2)CC1

Marked response:
1: 118.9; 2: 5.382; 3: -2.742; 4: -14.68; 5: 124.4; 6: 108.6
